Origin of the recorded values: ChEMBL document CHEMBL1201862

# Test system: MOLT-4
# TEST_NAME: NCI tumour cell line growth inhibition, 48 h
Active and inactive are the calls of the source. Cut-off read from the data, not from the text of the source: active = GI50 up to about 1.1 µM and inactive = higher.
Give your call using only these classes: y for active, n for inactive

Worked cases, answers included:
[
  {
    "COMPOUND": "CC(C)C(=O)/C=C/c1ccccc1",
    "ASSIGNED_CATEGORY": "n"
  },
  {
    "COMPOUND": "COc1ccc(Oc2cccc(/C=C3/C(=O)Nc4ccccc43)c2)cc1",
    "ASSIGNED_CATEGORY": "n"
  },
  {
    "COMPOUND": "Cc1cc(NS(=O)(=O)c2ccc(/N=N/c3c(Nc4ccccc4)nn(-c4ccc(S(=O)(=O)Nc5ccncn5)cc4)c3C)cc2)no1",
    "ASSIGNED_CATEGORY": "n"
  },
  {
    "COMPOUND": "NCCN(CCN)/[N+]([O-])=N/O",
    "ASSIGNED_CATEGORY": "n"
  },
  {
    "COMPOUND": "CCOC(=O)c1[nH]c2nc(SC)nc(Nc3ccccc3Cl)c2c1N",
    "ASSIGNED_CATEGORY": "n"
  },
  {
    "COMPOUND": "CCCCN1C(=O)C[C@H]2[C@@H]3CCc4cc(OCCN5CCCC5)ccc4[C@H]3CC[C@]2(C)C1=O",
    "ASSIGNED_CATEGORY": "n"
  },
  {
    "COMPOUND": "CC[S+]([O-])C(=O)N(O)c1ccc(Cl)cc1 (stereo not drawn)",
    "ASSIGNED_CATEGORY": "n"
  },
  {
    "COMPOUND": "Nc1ccc2[nH]c3c(-c4ccccc4)nccc3c2c1",
    "ASSIGNED_CATEGORY": "n"
  },
  {
    "COMPOUND": "CCCCCCCCCCC(C)CCCCCCC(=O)O (stereo not drawn)",
    "ASSIGNED_CATEGORY": "n"
  },
  {
    "COMPOUND": "CCOC(=O)/C=C/c1cccc(F)c1",
    "ASSIGNED_CATEGORY": "n"
  }
]

Short answer needed: outcome of this test for "N#Cc1cc2c(cc1C#N)/C(=N\c1cccc(N)n1)N/C2=N\c1cccc(N)n1" ?
n
